experimental protocol: Metabolic stability in rat liver microsomes assessed as compound remaining after 15 mins by RP-HPLC analysis in presence of NADPH
Format: ADME
stated conditions: read-out: Stability
measurement kind: remaining at 0.25 h

// below: answered compounds
smiles_code=CC(=O)Nc1ccc2c(c1)C(=NO)c1cc(NC(C)=O)ccc1-2 reported_measurement="> 80%"
smiles_code=CC(=O)Nc1ccc2c(c1)C(=O)c1cc(NC(C)=O)ccc1-2 reported_measurement=60%
smiles_code=CC(=O)Nc1ccc2c(c1)S(=O)(=O)c1cc(NC(C)=O)ccc1-2 reported_measurement="> 80%"

# next compound below
Request the reported remaining at 0.25 h associated with CC(=O)Nc1cccc(C(=O)c2cccc(NC(C)=O)c2)c1
> 80%

---

Measured pIC50, listed per entry for reference.
tested on: Urea transporter 1 (Rattus norvegicus, UniProt P97689)
Sequence (P97689 whole entry): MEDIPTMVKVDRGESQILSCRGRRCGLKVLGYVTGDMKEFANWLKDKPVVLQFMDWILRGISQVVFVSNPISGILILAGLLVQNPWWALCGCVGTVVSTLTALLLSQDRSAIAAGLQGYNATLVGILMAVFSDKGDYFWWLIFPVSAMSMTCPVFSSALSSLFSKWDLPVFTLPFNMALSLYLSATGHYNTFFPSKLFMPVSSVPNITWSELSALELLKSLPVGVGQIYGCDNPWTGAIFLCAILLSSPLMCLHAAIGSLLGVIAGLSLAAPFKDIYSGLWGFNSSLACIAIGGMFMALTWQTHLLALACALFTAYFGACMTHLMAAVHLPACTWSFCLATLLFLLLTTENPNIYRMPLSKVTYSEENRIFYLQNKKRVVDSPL
experimental protocol: Inhibition of UT-B in rat whole blood after 15 mins by RBC lysis assay
Units for pIC50: none; it is -log10 of a concentration expressed in mol/L.

Recorded results for 3 compounds are shown here.
smiles_code=CC(=O)Nc1ccc2c(c1)C(=O)c1cc(NC(C)=O)ccc1-2 reported_measurement=5.82
smiles_code=O=C1c2cc(NC(=O)C(F)(F)F)ccc2-c2ccc(NC(=O)C(F)(F)F)cc21 reported_measurement=5.12
smiles_code=O=C(CO)Nc1ccc2c(c1)C(=O)c1cc(NC(=O)CO)ccc1-2 reported_measurement=4.60

Kindly review the next compound as well.
Lab note: need pIC50 for [N-]=[N+]=NCC(=O)Nc1ccc2c(c1)C(=O)c1cc(NC(=O)CN=[N+]=[N-])ccc1-2 on Urea transporter 1 (Rattus norvegicus, UniProt P97689), anyone have it?
4.52

---

tested on: Urea transporter 2 (Rattus norvegicus)
Sequence (Q62668 whole entry): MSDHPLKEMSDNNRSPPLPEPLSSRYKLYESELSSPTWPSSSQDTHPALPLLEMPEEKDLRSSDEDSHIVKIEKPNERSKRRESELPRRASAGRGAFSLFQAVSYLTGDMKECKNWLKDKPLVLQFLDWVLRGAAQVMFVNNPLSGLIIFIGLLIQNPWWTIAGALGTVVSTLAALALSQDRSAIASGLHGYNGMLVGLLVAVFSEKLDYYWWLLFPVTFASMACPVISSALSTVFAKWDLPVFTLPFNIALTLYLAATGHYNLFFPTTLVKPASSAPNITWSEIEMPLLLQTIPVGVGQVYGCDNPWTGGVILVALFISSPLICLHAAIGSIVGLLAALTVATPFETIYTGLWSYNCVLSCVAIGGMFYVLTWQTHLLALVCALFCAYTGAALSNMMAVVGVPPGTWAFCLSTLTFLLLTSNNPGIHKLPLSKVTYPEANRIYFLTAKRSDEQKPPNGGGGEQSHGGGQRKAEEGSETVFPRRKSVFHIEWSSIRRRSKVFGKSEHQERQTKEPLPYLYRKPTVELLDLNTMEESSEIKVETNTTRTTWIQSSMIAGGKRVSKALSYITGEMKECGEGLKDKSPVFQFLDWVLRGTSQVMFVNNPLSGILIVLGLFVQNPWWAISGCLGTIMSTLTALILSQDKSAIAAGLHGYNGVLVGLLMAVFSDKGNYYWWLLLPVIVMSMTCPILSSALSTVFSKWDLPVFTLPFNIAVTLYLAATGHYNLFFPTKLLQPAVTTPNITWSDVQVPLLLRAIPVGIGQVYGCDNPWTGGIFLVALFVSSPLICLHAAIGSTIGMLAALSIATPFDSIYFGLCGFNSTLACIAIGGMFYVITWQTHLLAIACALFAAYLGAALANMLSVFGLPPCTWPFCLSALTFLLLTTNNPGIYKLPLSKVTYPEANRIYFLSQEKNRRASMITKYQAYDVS
experimental protocol: Inhibition of rat UT-A1 expressed in MDCK-UT-A1-AQP1-YFP cells after 15 mins by fluorescence assay
Format: cell-based
Below is a list of entries, each paired with its recorded pIC50 value.
In plain terms, pIC50 is the concentration in mol/L turned into minus its base-10 logarithm.

smiles_code=CC(C)C(=O)Nc1ccc2c(c1)C(=O)c1cc(NC(=O)C(C)C)ccc1-2 reported_measurement=4.74
smiles_code=[N-]=[N+]=NCC(=O)Nc1ccc2c(c1)C(=O)c1cc(NC(=O)CN=[N+]=[N-])ccc1-2 reported_measurement=4.70
smiles_code=CC(=O)Nc1ccc2c(c1)C(=O)c1cc(NC(C)=O)ccc1-2 reported_measurement=6.00
smiles_code=CCC(=O)Nc1ccc2c(c1)C(=O)c1cc(NC(=O)CC)ccc1-2 reported_measurement=4.82
smiles_code=O=C1c2cc(NC(=O)C(F)(F)F)ccc2-c2ccc(NC(=O)C(F)(F)F)cc21 reported_measurement=5.00

As a next step, examine the compound that follows.
Reported pIC50, compound CS(=O)(=O)Nc1ccc2c(c1)C(=O)c1cc(NS(C)(=O)=O)ccc1-2 : ____
5.82

---

tested on: UniProtKB P97689
experimental protocol: Inhibition of UT-B in rat whole blood after 15 mins by RBC lysis assay
measurement kind: log10 IC50 (log10 of the value in µM)
Each number you see is log10 of IC50, and the unit inside the log is µM.

Some entries whose results are on file:
smiles_code=CS(=O)(=O)Nc1ccc2c(c1)C(=O)c1cc(NS(C)(=O)=O)ccc1-2 measurement_kind="log10 IC50" reported_measurement=0.40
smiles_code=CC(=O)Nc1cccc(C(=O)c2cccc(NC(C)=O)c2)c1 measurement_kind="log10 IC50" reported_measurement=1.30
smiles_code=NC(=O)Nc1ccc2c(c1)C(=O)c1cc(NC(N)=O)ccc1-2 measurement_kind="log10 IC50" reported_measurement=0.08
smiles_code=CCC(=O)Nc1ccc2c(c1)C(=O)c1cc(NC(=O)CC)ccc1-2 measurement_kind="log10 IC50" reported_measurement=0.70
smiles_code=COCCOCC(=O)Nc1ccc2c(c1)C(=O)c1cc(NC(=O)COCCOC)ccc1-2 measurement_kind="log10 IC50" reported_measurement=1.70

Can you share its log10 IC50? I mean this compound: CC(=O)Nc1ccc2c(c1)C(=NO)c1cc(NC(C)=O)ccc1-2
1.40

Follow-up item: O=C(CBr)Nc1ccc2c(c1)C(=O)c1cc(NC(=O)CBr)ccc1-2
1.00

Moving on to CC(=O)Nc1ccc2c(c1)S(=O)(=O)c1cc(NC(C)=O)ccc1-2
0.30

And the next one, CC(C)C(=O)Nc1ccc2c(c1)C(=O)c1cc(NC(=O)C(C)C)ccc1-2 ?
1.70

Now this one: CC(=O)Nc1ccc2c(c1)C(O)c1cc(NC(C)=O)ccc1-2
1.30

Consider next the compound CS(=O)(=O)Nc1cccc(C(=O)c2cccc(NS(C)(=O)=O)c2)c1 in the same way.
1.48
